Sourced from patent US12528814B2

Property: Dmax; scope: individual molecules
experimental-system: IRAK4 (Homo sapiens (Human))
experiment: IRAK4 Degradation HiBiT Assay
particulars: Jurkat, read-out: Cellular IRAK4 HiBiT: Dmax, Table 5; multiple runs; HiBiT-tagged Jurkat cells, 4 hrs
Sequence (Q9NWZ3 whole entry): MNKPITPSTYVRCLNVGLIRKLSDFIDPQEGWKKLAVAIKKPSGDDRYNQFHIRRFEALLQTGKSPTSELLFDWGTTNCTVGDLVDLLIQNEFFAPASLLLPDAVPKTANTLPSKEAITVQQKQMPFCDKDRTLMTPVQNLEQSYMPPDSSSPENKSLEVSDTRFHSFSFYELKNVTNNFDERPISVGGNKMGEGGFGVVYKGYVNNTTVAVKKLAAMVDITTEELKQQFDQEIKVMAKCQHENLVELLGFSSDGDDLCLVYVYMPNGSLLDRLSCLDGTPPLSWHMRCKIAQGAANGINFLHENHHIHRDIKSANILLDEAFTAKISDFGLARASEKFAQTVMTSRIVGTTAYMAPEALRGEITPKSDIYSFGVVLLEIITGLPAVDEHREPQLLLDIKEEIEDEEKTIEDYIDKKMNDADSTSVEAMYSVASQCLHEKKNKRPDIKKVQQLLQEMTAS
Unit % implied. Number only.

// worked examples, Dmax included
molecule	Dmax [%]
CC(C)Nc1cc(-c2ccc3cc(C#N)cnn23)ncc1-c1nnc([C@H]2CC[C@H](NC(=O)CCOCCOCCOCCNc3cccc4c3C(=O)N(C3CCC(=O)NC3=O)C4=O)CC2)s1 (stereo partly drawn)	98
CNc1cc(-c2ccc3cc(C#N)cnn23)ncc1-c1nnc(N2CCN(C(=O)C3CC4(CCN(c5ccc6c(c5)C(=O)N(C5CCC(=O)NC5=O)C6=O)C4)C3)CC2)s1 (stereo not drawn)	91
CNc1cc(-c2ccc3cc(C#N)cnn23)ncc1-c1nnc([C@H]2C[C@H](NC(=O)CN3CCN(c4ccc5c(c4)C(=O)N(C4CCC(=O)NC4=O)C5=O)CC3)C2)s1 (stereo partly drawn)	105
Cc1ncsc1-c1ccc([C@H](C)NC(=O)[C@@H]2C[C@@H](O)CN2C(=O)[C@@H](NC(=O)CCCCCC(=O)N2CCN(c3nnc(-c4cnc(-c5ccc6cc(C#N)cnn56)cc4NC(C)C)s3)CC2)C(C)(C)C)cc1	98
CC(C)Nc1cc(-c2ccc3cc(C#N)cnn23)ncc1-c1nnc(N2CCN(C(=O)C3CCN(CC4CCN(c5ccc6c(=O)n(C7CCC(=O)NC7=O)ccc6c5)CC4)CC3)CC2)s1 (stereo not drawn)	101

Problem: Given CNc1cc(-c2ccc3cc(C#N)cnn23)ncc1-c1nnc([C@H]2CC[C@H](NC(=O)CCCOc3cc(-c4scnc4C)ccc3CNC(=O)[C@@H]3C[C@@H](O)CN3C(=O)[C@@H](NC(=O)C3(F)CC3)C(C)(C)C)CC2)s1 , respond with its Dmax.
Solution: 117

Problem: Dear colleague, please send me the reported Dmax for CNc1cc(-c2ccc3cc(C#N)cnn23)ncc1-c1nnc(C23CCC(NC(=O)CCOCCNc4cccc5c4C(=O)N(C4CCC(=O)NC4=O)C5=O)(CC2)CC3)s1 (stereo not drawn) when you can.
Solution: 59

Problem: Output Dmax of CNc1cc(-c2ccc3cc(C#N)cnn23)ncc1-c1nnc(N2CCN(C(=O)CN3CCN(c4ccc5c(c4)C(=O)N(C4CCC(=O)NC4=O)C5=O)CC3)CC2)s1 (stereo not drawn)
Solution: 113

Problem: Given CC(C)Nc1cc(-c2ccc3cc(C#N)cnn23)ncc1-c1nnc(N2CCC(NCC3CCN(c4ccc5c(c4)C(=O)N(C4CCC(=O)NC4=O)C5=O)CC3)CC2)s1 (stereo not drawn) , respond with its Dmax.
Solution: 99

Problem: Give me measured Dmax, please, for this molecule: CNc1cc(-c2ccc3cc(C#N)cnn23)ncc1-c1nnc([C@H]2CC[C@H](N(C)C(=O)C[C@H](NC(=O)[C@@H]3C[C@@H](O)CN3C(=O)C(c3cc(C)no3)C(C)C)c3ccc(-c4scnc4C)cc3)CC2)s1 (stereo partly drawn)
Solution: 110

Problem: Give the reported Dmax for this molecule. CNc1cc(-c2ccc3cc(C#N)cnn23)ncc1-c1nnc([C@H]2CC[C@H](NC(=O)CCC(=O)N[C@H](C(=O)N3C[C@H](O)C[C@H]3C(=O)N[C@@H](C)c3ccc(-c4scnc4C)cc3)C(C)(C)C)CC2)s1
Solution: 117

###

experimental-system: IRAK4 (Homo sapiens (Human), UniProt Q9NWZ3)
experiment: IRAK4 Biochemical HTRF Kinase Assay
particulars: Table 5; multiple runs; read-out: IRAK4 HTRF biochemical: IC50
Sequence (Q9NWZ3 whole entry, species assumed): as the sequence (Q9NWZ3 whole entry) above
The label is True for IC50 below 2 nM and False for IC50 equal to or exceeding 2 nM.

Reference set (3 entries):
molecule	classification
CC(C)Nc1cc(-c2ccc3cc(C#N)cnn23)ncc1-c1nnc(N2CCN(C(=O)CCOCCNc3ccc4c(c3)C(=O)N(C3CCC(=O)NC3=O)C4=O)CC2)s1 (stereo not shown) [Example 10]	True
CC(C)Nc1cc(-c2ccc3cc(C#N)cnn23)ncc1-c1nnc(N2CCN(CCCCc3cccc4c3CN(C3CCC(=O)NC3=O)C4=O)CC2)s1 (stereo not shown) [Example 28]	True
CNc1cc(-c2ccc3cc(C#N)cnn23)ncc1-c1nnc([C@H]2CC[C@H](NC(=O)[C@H]3CC[C@H]3C(=O)N[C@H](C(=O)N3C[C@H](O)C[C@H]3C(=O)N[C@@H](C)c3ccc(-c4scnc4C)cc3)C(C)(C)C)CC2)s1 (racemic) [Example 143]	True

Problem: Hi there! Is IC50 for CC(C)Nc1cc(-c2ccc3cc(C#N)cnn23)ncc1-c1nnc([C@H]2CC[C@H](NC(=O)CCOCCOCCOCCNc3cccc4c3C(=O)N(C3CCC(=O)NC3=O)C4=O)CC2)s1 (stereo partly shown) [Example 4] below 2 nM, do you know?
Solution: True

Problem: Could you please tell me whether IC50 recorded for CC(C)Nc1cc(-c2ccc3cc(C#N)cnn23)ncc1-c1nnc(N2CCC3(CCN(C(=O)c4ccc5c(c4)C(=O)N(C4CCC(=O)NC4=O)C5)CC3)CC2)s1 (stereo not shown) [Example 87] is less than 2 nM?
Solution: False

Problem: Is 2 nM strictly greater than the molecule's reported IC50? molecule: CC(C)Nc1cc(-c2ccc3cc(C#N)cnn23)ncc1-c1nnc(N2CCN(C3CCN(C(=O)CNc4cccc5c4C(=O)N(C4CCC(=O)NC4=O)C5=O)CC3)CC2)s1 (stereo not shown) [Example 74]
Solution: False

Problem: Does the reported IC50 of the following molecule sit strictly below 2 nM? Cc1ncsc1-c1ccc([C@H](C)NC(=O)[C@@H]2C[C@@H](O)CN2C(=O)[C@@H](NC(=O)CCC(=O)N2CCN(c3nnc(-c4cnc(-c5ccc6cc(C#N)cnn56)cc4NC(C)C)s3)CC2)C(C)(C)C)cc1 [Example 40]
Solution: False

Problem: Input CNc1cc(-c2ccc3cc(C#N)cnn23)ncc1-c1nnc([C@H]2CC[C@H](NC(=O)CCCCCNc3cccc4c3C(=O)N(C3CCC(=O)NC3=O)C4=O)CC2)s1 (stereo partly shown) [Example 66] ; condition: IC50 strictly below 2 nM. Does it hold?
Solution: True

Problem: Given the entry CNc1cc(-c2ccc3cc(C#N)cnn23)ncc1-c1nnc([C@H]2CC[C@H](NC[C@@H]3CCN(c4ccc5c(c4)C(=O)N(C4CCC(=O)NC4=O)C5=O)C3)CC2)s1 (stereo partly shown) [Example 153] , would its reported IC50 be below 2 nM?
Solution: True
